Each entry below lists one item and its recorded IC50 value.
Biological target: CDK9/CycT (Homo sapiens (Human))
Sequence (P50750 whole entry): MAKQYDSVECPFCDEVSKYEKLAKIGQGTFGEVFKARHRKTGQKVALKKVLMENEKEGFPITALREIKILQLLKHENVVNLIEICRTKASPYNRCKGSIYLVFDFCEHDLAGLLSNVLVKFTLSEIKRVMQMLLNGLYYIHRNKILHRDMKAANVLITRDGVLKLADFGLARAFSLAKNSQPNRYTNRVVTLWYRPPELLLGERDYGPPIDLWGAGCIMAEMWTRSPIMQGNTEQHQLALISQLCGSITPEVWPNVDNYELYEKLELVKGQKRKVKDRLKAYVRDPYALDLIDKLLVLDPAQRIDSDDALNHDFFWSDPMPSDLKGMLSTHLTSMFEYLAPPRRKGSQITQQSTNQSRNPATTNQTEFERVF
Sequence (O60563 whole entry partner): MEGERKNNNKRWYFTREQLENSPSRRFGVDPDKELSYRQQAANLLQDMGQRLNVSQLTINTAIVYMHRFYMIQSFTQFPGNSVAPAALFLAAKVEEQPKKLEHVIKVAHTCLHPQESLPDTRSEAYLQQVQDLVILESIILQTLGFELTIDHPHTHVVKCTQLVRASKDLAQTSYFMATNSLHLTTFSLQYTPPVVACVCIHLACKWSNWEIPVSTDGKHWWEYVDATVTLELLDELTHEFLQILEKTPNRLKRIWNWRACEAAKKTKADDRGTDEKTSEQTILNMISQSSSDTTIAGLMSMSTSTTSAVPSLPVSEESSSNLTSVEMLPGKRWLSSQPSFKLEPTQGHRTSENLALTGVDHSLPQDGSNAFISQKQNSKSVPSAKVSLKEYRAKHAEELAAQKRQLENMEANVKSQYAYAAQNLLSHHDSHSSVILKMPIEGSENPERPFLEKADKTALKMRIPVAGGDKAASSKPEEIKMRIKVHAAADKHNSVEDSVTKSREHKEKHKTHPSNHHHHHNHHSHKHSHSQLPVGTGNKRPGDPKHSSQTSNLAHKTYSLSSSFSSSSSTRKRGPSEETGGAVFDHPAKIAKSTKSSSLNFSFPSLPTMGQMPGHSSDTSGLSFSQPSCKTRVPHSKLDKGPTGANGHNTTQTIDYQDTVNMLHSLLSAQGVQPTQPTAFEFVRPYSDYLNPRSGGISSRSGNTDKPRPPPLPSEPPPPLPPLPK
Assay: LANCE Ultra kinase activity inhibition assay, CDK9/CycT
Format: biochemical
Conditions: ATP 10 μM, highest compound concentration 1 μM

Molecule | IC50
CC(C)c1cnn2c(N[C@H]3CC[C@H](N)C3)cc(C(C3CC3)C3CC3)nc12 [Compound Z-24] | 0.084 µM
CC[C@H](c1cc(N[C@H]2CC[C@H](N)C2)n2nccc2n1)C1CC1 [Compound Z-28-P2] | 0.012 µM
N[C@H]1CC[C@H](Nc2cc(CC3CC3)nc3c(F)cnn23)C1 [Compound Z-54] | 0.016 µM
N[C@H]1CC[C@H](Nc2cc(C(C3CC3)C3CC3)nc3c(Cl)cnn23)C1 [Compound Z-2] | 0.006 µM

Shift focus to the following entry.
Lab note: C=CC(C)(C)c1cc(N[C@H]2CC[C@H](N)C2)n2ncc(C)c2n1 [Compound Z-19] gave IC50 of 0.092 µM

---

Molecular target: CDK2/CycA (Homo sapiens (Human), UniProt P24941)
Test: LANCE Ultra kinase activity inhibition assay, CDK2/CycA
Assay type: biochemical
Settings: ATP 10 μM, highest compound concentration 10 μM
Kindly apply the following: 1 (yes) if IC50 is less than 2 µM, 0 (no) in every other case.

Recorded results for 5 compounds are shown here.
Compound | Label
CC(c1cc(N[C@H]2CC[C@H](NC(=N)N)C2)n2ncc(F)c2n1)C1CC1 (some centres unmarked) | 0 (no)
N[C@H]1CC[C@H](Nc2cc(C(C3CC3)C3CC3)nc3c(C(F)(F)F)cnn23)C1 | 1 (yes)
CC(c1cc(N[C@H]2CC[C@H](N)C2)n2nccc2n1)(C1CC1)C1CC1 | 0 (no)
N[C@H]1CC[C@H](Nc2cc(CC3CC3)nc3c(F)cnn23)C1 | 0 (no)
CC(=N)N[C@H]1CC[C@H](Nc2cc(C(C3CC3)C3CC3)nc3c(Cl)cnn23)C1 | 1 (yes)

Is 2 µM strictly greater than the compound's reported IC50? compound: `CC(C)(c1cc(N[C@H]2CC[C@H](N)C2)n2nccc2n1)C1CCC1`
0 (no)

In plain terms, does Cc1cnn2c(N[C@H]3CC[C@H](N)C3)cc([C@H](C)C3(C)CC3)nc12 [Compound Z-26-P1] come in under 2 µM for IC50?
1 (yes)

Lab log: compare recorded IC50 with 2 µM; is it strictly lower for `CC(C)(c1cc(N[C@H]2CC[C@H](N)C2)n2ncc(Cl)c2n1)C1CCC1` ?
1 (yes)

---

Measured IC50, listed per entry for reference.
Target: CDK1/CycB (Homo sapiens (Human))
Sequence (P06493 whole entry): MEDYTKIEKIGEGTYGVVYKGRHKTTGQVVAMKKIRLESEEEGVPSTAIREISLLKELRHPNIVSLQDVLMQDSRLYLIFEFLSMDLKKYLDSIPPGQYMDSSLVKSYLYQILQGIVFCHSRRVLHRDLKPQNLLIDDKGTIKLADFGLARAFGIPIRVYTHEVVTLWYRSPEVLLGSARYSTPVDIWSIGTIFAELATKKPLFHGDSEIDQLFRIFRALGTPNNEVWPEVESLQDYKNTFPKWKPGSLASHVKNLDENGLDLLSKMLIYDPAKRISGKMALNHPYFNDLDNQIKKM
Sequence (P14635 whole entry partner): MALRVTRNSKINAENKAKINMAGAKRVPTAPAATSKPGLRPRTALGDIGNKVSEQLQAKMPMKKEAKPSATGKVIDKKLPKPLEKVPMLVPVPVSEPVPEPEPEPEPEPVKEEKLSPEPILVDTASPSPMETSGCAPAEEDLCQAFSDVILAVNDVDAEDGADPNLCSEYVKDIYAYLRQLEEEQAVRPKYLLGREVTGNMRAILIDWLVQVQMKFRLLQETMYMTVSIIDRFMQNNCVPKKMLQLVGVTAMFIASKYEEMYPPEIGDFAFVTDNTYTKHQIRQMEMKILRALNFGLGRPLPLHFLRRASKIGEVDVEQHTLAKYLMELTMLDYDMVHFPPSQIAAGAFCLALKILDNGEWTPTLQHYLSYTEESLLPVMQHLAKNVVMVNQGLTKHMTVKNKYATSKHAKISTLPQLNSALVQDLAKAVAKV
Experiment: LANCE Ultra kinase activity inhibition assay, CDK1/CycB
Assay type: biochemical
Conditions: ATP 4 μM, highest compound concentration 10 μM
Provide only the numeric value, understood in µM.

Reference set (3 entries):
Compound | Endpoint unit | IC50
CCc1cnn2c(N[C@H]3CC[C@H](N)C3)cc(C(C3CC3)C3CC3)nc12 [Compound Z-16] | µM | 1.27
CC(C)(c1cc(N[C@H]2CC[C@H](N)C2)n2ncc(Cl)c2n1)C1CCC1 [Compound Z-46] | µM | 1.15
CC(c1cc(NC2CCNC2)n2ncc(F)c2n1)C1CC1 (centres unmarked) [Compound Z-31] | µM | 3.21

Alright, here's another compound for you.
Item: N[C@H]1CC[C@H](Nc2cc(C(C3CC3)C3CC3)nc3ccnn23)C1 [Compound Z-1] | IC50: 1.96
